- System: DU-145
- protocol: NCI tumour cell line growth inhibition, 48 h
Calls of active or inactive are those of the source. Rule as the data show it: active = GI50 up to about 1.1 µM and inactive = higher.
Respond with a class label; see Y = active, N = inactive

Query: recorded result category for C/C(=N/CC(=O)O)c1ccccc1 in this test N

Assay result, entry CC1(C)CC2(C)CC1CC2O (configuration not stated) — outcome? N

Hi team, can someone confirm the assay call for CCN1CCCCCCCCCC(=N/O)/C(=N\O)C1 ? N

Query: recorded result category for NC(=O)Cc1nc2c(N)ncnc2n1C1OC(CO)C(O)C1O (configuration not stated) in this test N

// param item: CN(Cc1cnc2nc(N)nc(N)c2n1)c1ccc(C(=O)NC(CCC(=O)O)C(=O)O)cc1 (configuration not stated) ; yields the recorded call Y

Recorded test outcome, item CC(=O)Oc1ccccc1/C=C/C(=O)/C=C/c1ccccc1OC(C)=O N

Please state the recorded outcome for this molecule: CC(C)(C)C=C=C(C(C)(C)C)P(=O)(O)O N

Each molecule tested received a call. Report the one for NC(=O)C(Nc1c(Cl)cccc1Cl)c1cc2cc(Br)ccc2nc1Cl (configuration not stated) . N

Recorded test call requested for CC(=O)/C(=N\N=C(N)N)c1ccccc1 N

# outcome recorded in this test, key = CCC1c2[nH]c3ccccc3c2C[C@H]2C(=O)NC(CCCCNC(=O)OC(C)(C)C)C(=O)N12 (some centres not stated) N

Just curious, what result did COc1cc(N(C)C)c(OC)cc1/C=C\c1ccnc2ccccc12 get here? N

Hi, sorry to bother you, what did the test record for O=C1c2c(ccc3c2CCCC3)CC1Cc1ccc2c(c1)CCCC2 (configuration not stated) ? N

###

- Tested on: NCI-H23
- protocol: NCI tumour cell line growth inhibition, 48 h
Calls of active or inactive are those of the source. Rule as the data show it: active = GI50 up to about 1.1 µM and inactive = higher.
For each entry below, report its GI50 value.

Note to self: GI50 recorded for O=C1CSC(c2ccccc2O)N1c1ccc2c(c1)Oc1c(Cl)c3c(c(Cl)c1=N2)Oc1cc(N2C(=O)CSC2c2ccccc2O)ccc1N=3 (centres undefined) was 58.3 µM (inactive)

Lookup result for COc1ccc(NC(=O)C(=O)C(CC2C(=O)NC(=S)NC2=O)C(=O)c2ccc3ccccc3c2)c([N+](=O)[O-])c1 (centres undefined) ; measured GI50: > 100 µM (inactive)

The molecule identified as COc1ccc(NC2=CC(=O)C(=O)c3ccccc32)nn1 registered its GI50 at 1.91 µM (inactive)

According to the records, this molecule COCCOCCOCCOc1ccc(C(C#N)N(CCc2ccccc2)C(=O)c2cc(C(=O)N(CCc3ccccc3)C(C#N)c3ccc(OCCOCCOCCOC)cc3)cc(C(=O)N(CCc3ccccc3)C(C#N)c3ccc(OCCOCCOCCOC)cc3)c2)cc1 (centres undefined) displays GI50 of > 100 µM (inactive)

The reported GI50 of the molecule CCOC(=O)C(=O)Nc1cc(Cl)ccc1Cl was > 100 µM (inactive)

Per the records, this molecule ( CN1CCC[N+](C)=C1c1ccccc1 ) has GI50 equal to > 100 µM (inactive)

In plain terms, Nc1ccc(-c2nc3ccccc3s2)cc1C(F)(F)F has a documented GI50 of 13.5 µM (inactive)

In plain terms, CC1=NN(c2ccccc2)C(=O)C1=C1SCCS1 has a documented GI50 of > 100 µM (inactive)

Measured GI50, NC(Cc1cccc([N+](=O)[O-])c1)C(=O)O (centres undefined) : > 100 µM (inactive)

###

- Test system: NCI/ADR-RES
- protocol: NCI tumour cell line growth inhibition, 48 h
Calls of active or inactive are those of the source. Rule as the data show it: active = GI50 up to about 1.1 µM and inactive = higher.
quantity name: GI50

Memo: CCOC(=O)CCC(NC(=O)C(N)Cc1ccc(N(CCCl)CCCl)cc1)C(=O)OCC (stereo not given) , reported GI50: 1.33 µM (inactive)

According to the records, this compound CO/C=C(/C(=O)OC)[C@@H]1C[C@@H]1c1ccc2ccccc2c1 displays GI50 of 26.4 µM (inactive)

GI50 reading for FC1=C2CCCCCC2SC1(F)F (stereo not given) : > 100 µM (inactive)

The reported value for C[Si](C)(OCCS(=O)(=O)O)C1S(=O)(=O)OCCOS1(=O)=O in terms of GI50 is 45.4 µM (inactive)

// field: GI50; key: CC1=C(C(=O)OC(C)C)C(c2ccccc2[N+](=O)[O-])C(C(=O)OC(CO[N+](=O)[O-])CO[N+](=O)[O-])=C(C)N1 (stereo not given) ; value = 3.27 µM (inactive)

Summary for this compound, COc1ccc2[nH]cc(/C=C(/C)c3ccncc3)c2c1 : GI50 is 2.94 µM (inactive)

Sample CC(C)=CCC(O)C1=CC(=O)c2c(O)ccc(O)c2C1=O (stereo not given) ; GI50 observed: 2.05 µM (inactive)

Recorded GI50 (compound CSc1nc(N)c(NC2OC(CO)C(O)C2O)c(=O)[nH]1 (stereo not given) ): > 100 µM (inactive)

// field: GI50; key: CC1(C)CC(=O)C2=C(C1)c1c(ccc3ccccc13)NC2c1cn(Cc2ccc(Cl)cc2)c2ccccc12 (stereo not given) ; value = 52.6 µM (inactive)

Consider Cc1ccc(C(=O)CCl)o1 . Its measured GI50 is > 10 µM (inactive)

###

- Test system: MOLT-4
- protocol: NCI tumour cell line growth inhibition, 48 h
Activity calls are given as the source filed them. Cut-off read from the data, not from the text of the source: active = GI50 up to about 1.1 µM and inactive = higher.
Permitted responses: yes (1) for active, no (0) for inactive

Please state the recorded outcome for this molecule: CCC1=C(C(C)=O)[C@@H]2CCCCC[C@@H](C(=O)OC)C2C1=O (stereo not given in full) no (0)

# lookup: test call for CN(C)c1ccc(/C=C/C(=O)C(C)(C)C)cc1Br no (0)

Dear colleague, could you share the recorded outcome for COC(=O)/C=C/c1cnc2c(c1)oc(=O)n2CCc1ccccn1 when you have a moment? no (0)

What was the test verdict on COCCOCCOCCOc1ccc(C(C#N)N(CCc2ccccc2)C(=O)c2cc(C(=O)N(CCc3ccccc3)C(C#N)c3ccc(OCCOCCOCCOC)cc3)cc(C(=O)N(CCc3ccccc3)C(C#N)c3ccc(OCCOCCOCCOC)cc3)c2)cc1 (stereo not given) ? no (0)

Give the logged outcome of this assay for the following molecule: CCOC(CNCCC(=O)OC)OCC no (0)

Dear colleague, could you share the recorded outcome for COC(=O)C(=O)C(C(C)=O)C(=O)NCc1ccccc1 (stereo not given) when you have a moment? no (0)

How did this test come out for OCC12C=CC(C1)c1ccccc12 (stereo not given) ? no (0)

Could you kindly confirm the outcome this assay logged for CCOC(=O)c1ccc(O)cc1 ? no (0)

Outcome logged for CCCCCCCCCCCCCCCCc1c(O)nc(NC#N)nc1C(=O)OC in this assay: no (0)

Record lookup: outcome of this test for CCC1c2[nH]c3ccccc3c2C[C@H]2C(=O)NC(CCCCNC(=O)OC(C)(C)C)C(=O)N12 (stereo not given in full) ? no (0)

What is the recorded call for this molecule in the test? CCC1(O)C[C@H]2CN(CCCc3c([nH]c4ccccc34)[C@@](C(=O)OC)(c3cc4c(cc3OC)N(C)C3[C@](O)(C(=O)OC)[C@H](OC(C)=O)[C@]5(CC)C=CCN6CC[C@]43[C@H]65)C2)C1 (stereo not given in full) yes (1)

Called result for COc1ccc(C2C3CCCC(C3=O)C(c3ccc(OC)cc3)N2N=O)cc1 (stereo not given) no (0)

For this molecule, state the assay outcome: C/C(=C1\C(=O)C(c2ccccc2)N(c2ccccc2)C1=O)c1ccc(Cl)cc1 (stereo not given) no (0)

Assay outcome for CCCCOC(=O)C(=O)C(CC(C(=O)Cc1ccccc1)c1ccccc1)C(=O)C=C(C)C (stereo not given) : what was it? no (0)

Check the results log: what was the call for COc1ccc2c3c([nH]c2c1)CCN(CCCC(=O)c1ccc(F)cc1)C3 ? no (0)

Answer briefly: the call reported for CSc1nc(N)c(NC2OC(CO)C(O)C2O)c(=O)[nH]1 (stereo not given) in this assay. no (0)

Hey, what did the test say about NC(Cc1cccc([N+](=O)[O-])c1)C(=O)O (stereo not given) ? no (0)

For O=C(Cc1ccccc1)NCCc1ccc(O)c(O)c1 , which call appears in the assay record? no (0)

Which outcome was entered for the molecule CN(C)CCNC(=O)c1cccc2c1nc(-c1ccncc1)c1ccccc12 in this test? yes (1)

How was NCCSc1nc(N)c2ncn(C3OC(CO)C(O)C3O)c2n1 (stereo not given) classified in this test? no (0)

###

Kindly state GI50 for each of the entries shown.
- Tested on: HCT-15
- protocol: NCI tumour cell line growth inhibition, 48 h
Reply numerically in µM, unit not repeated.

Sure, the documented GI50 for COc1ccc2c(c1)CCc1c-2n(CCN(C)C)c2ccc(OC)cc12 is 11.4

// GI50 value for COC(=O)c1c(O)ccc2c1c1c(n2Cc2ccccc2Cl)C(=O)c2ccccc2C1=O : 12.7

Entry Cc1ccc(Oc2ccc(C)cc2N)cc1 , GI50 reported as 48.5

The reported value for Oc1cc(O)c2c(-c3c(O)c(-c4ccc(O)c(O)c4)[o+]c4cc(O)cc(O)c34)c(O)c(-c3ccc(O)c(O)c3)[o+]c2c1 in terms of GI50 is 41.8

Per the record, C/C(=N/NC(=S)N(C)C)c1ccccc1O has GI50 of 3.28

Short answer for CCCNC(=O)Nc1c([N+](=O)[O-])cc(C(F)(F)F)cc1[N+](=O)[O-] : GI50 was 51.8
